conditions: buffer; pH 7.4; 200.0 µM
A collection of compounds and their measured solubility kinetic

- C=CCNc1nc(Cl)nc(Nc2cc(Cl)ccc2OC)n1: < 0.1 µg/mL
- CC(=O)Nc1ccc(NC(=O)c2ccc(Cl)nc2)cc1: > 43.5 µg/mL

// next entry
Exam item: Give the measured solubility kinetic of O=C(c1cccc(C(F)(F)F)c1)N1CCN(CCc2ccccc2)CC1 .
Marked response: > 54.4 µg/mL

----------
Below, each of the compounds is paired with its reported log10 solubility kinetic value.
settings: buffer; pH 7.4; 200.0 µM
Each number you see is log10 of solubility kinetic, and the unit inside the log is µg/mL.

// solved cases for log10 solubility kinetic follow
• O=S(=O)(Nc1ncccn1)c1ccc(Cl)cc1 = 1.60
• O=C(NC1C2CC3CC(C2)CC1C3)c1ccc(Br)o1 (stereo not drawn) = 1.44
• Cc1ccccc1NC(=O)Cn1c(=O)sc2ccccc21 = 0.28
• CC1CC(C)CN(C(=O)COC(=O)c2cncc(Br)c2)C1 (stereo not drawn) = 1.63

Exam item: Which log10 solubility kinetic value belongs to CC1(C)CC2(CCCN(C(=S)Nc3ccccc3)C2)CCO1 (stereo not drawn) ?
Marked response: 1.67

Exam item: Now the same for CCC(=O)NC(=S)Nc1ccc(NC(=O)c2cccnc2)cc1
Marked response: 1.12

Exam item: Can you check N#C/C(=C\Nc1ccc(Cl)cc1)S(=O)(=O)c1ccccn1 next?
Marked response: 0.94

Exam item: Also COc1ccc(N(Cc2cc3ccc(C)cc3[nH]c2=O)C(=O)C2CCCO2)cc1 (stereo not drawn) ?
Marked response: 1.00

Exam item: Moving on to the next compound: CC(C)(C)NC(=O)c1ccc(COc2ccc(Cl)cc2Cl)o1
Marked response: 0.70

----------
details: buffer; pH 7.4; 200.0 µM
Label rule, in plain words: solubility kinetic of 40 µg/mL and up is class 1, under 40 µg/mL is class 0.

The following compounds have reported results that may help.
• Cc1cc(F)ccc1NC(=S)NC1CCCC1 = class 0
• O=C(O)c1ccc(S(=O)(=O)NCc2cccnc2)cc1 = class 1
• COc1ccc(CNC(=O)c2ccc(Br)cc2)cc1 = class 0

Exam item: Could you verify whether the entry O=C(/C=C/C(=O)NCc1cccs1)NCc1cccs1 shows solubility kinetic of no less than 40 µg/mL?
Marked response: class 0

Exam item: Moving on to CCC(C(=O)Nc1ccc(N2CCOCC2)c(S(=O)(=O)Nc2ccccc2OC)c1)c1ccccc1 (stereo not drawn)
Marked response: class 0

Exam item: Param item: Cc1cc(C)cc(C(=O)NCC(=O)OCC(=O)N2CCCCC2)c1
Marked response: class 1

Exam item: Moving on to COP(=O)(OC)C(NC(=O)Nc1ccccc1)c1ccccc1 (stereo not drawn)
Marked response: class 1

Exam item: Also need O=S(=O)(c1ccccc1)c1nc(-c2ccccc2)oc1N1CCCC1 , thanks.
Marked response: class 0

----------
conditions: buffer; pH 7.4; 200.0 µM
quantity: solubility kinetic

• CNC(=O)CSc1nnc(-c2cnccn2)n1C = > 39.6 µg/mL

Exam item: What value of solubility kinetic has been recorded for this entry: Cc1ccccc1N=CC1=C(O)c2ccccc2C1=O
Marked response: < 0.6 µg/mL

Exam item: Proceed to O=C(Nc1cc(Cl)ccc1N1CCOCC1)c1ccncc1
Marked response: > 47.7 µg/mL

----------
This section presents compounds with their documented solubility kinetic values.
settings: buffer; pH 7.4; 200.0 µM

# annotated cases, reported solubility kinetic shown
- COc1cc(OC)cc(C(=O)N[C@H](C(=O)NC2=NCCS2)C(C)C)c1: > 54.8 µg/mL
- Cc1cc(CNC(=O)COC(=O)C2CC3CCCC(C2)C3=O)cc(C)c1O (stereo not drawn): > 56 µg/mL
- N#Cc1c(SCC(N)=O)nc2c(c1-c1ccncc1)CCCC2: > 48.7 µg/mL
- Nc1nc(O)c(Sc2ccccc2[N+](=O)[O-])c(=O)[nH]1: > 42 µg/mL
- CC(NC(=O)c1cc(F)c(F)cc1Cl)c1ccncc1 (stereo not drawn): > 44.5 µg/mL

Exam item: Record request: solubility kinetic value, item N#C/C(=C\c1ccccc1)C(=O)OCC(=O)N1CCCC1
Marked response: > 42.6 µg/mL

Exam item: Follow-up item: Cc1nc(Sc2ccc(Cl)cc2)c(C#N)c(C)c1[N+](=O)[O-]
Marked response: < 0.2 µg/mL

Exam item: Could you do the same for Clc1cccc(Sc2ccc(-c3ccccn3)s2)c1 , please?
Marked response: < 0.7 µg/mL

Exam item: Another compound to look at: CC1CCN(C(=O)CSc2n[nH]c(-c3cccs3)n2)CC1
Marked response: > 48.4 µg/mL

Exam item: Could you do the same for O=C(NC1CC1)C1CC(=O)N(c2cccc(Cl)c2)C1 (stereo not drawn) , please?
Marked response: > 41.8 µg/mL

Exam item: Entry to check: Cn1ccnc1Sc1ccc(C=O)cc1[N+](=O)[O-]
Marked response: > 39.5 µg/mL

Exam item: FC(F)(F)c1nc2ccccc2[nH]1 ?
Marked response: > 27.9 µg/mL

Exam item: Note, next up: CSc1cc(CS(=O)(=O)c2ccccc2)nc(-c2ccccc2)n1
Marked response: < 0.4 µg/mL

----------
conditions: buffer; pH 7.4; 200.0 µM
quantity: solubility kinetic

Worked examples follow.
- COc1ccccc1NC(=O)NC1CCS(=O)(=O)C1 (stereo not drawn): > 42.6 µg/mL
- N#CCc1ccc(OC(=O)c2ccncc2)cc1: > 35.7 µg/mL
- C=CCn1c(-c2ccccc2)nc(=S)c2c1CCCC2: > 42.4 µg/mL
- O=S(=O)(Nc1nc2ccccc2s1)c1ccc(Cl)nc1: > 48.9 µg/mL
- CN1C(=O)NC(c2ccccc2Cl)C2=C1CC(C)(C)CC2=O (stereo not drawn): > 47.8 µg/mL
- CCCN(CCC)C(=O)CC(c1ccccc1)c1ccco1 (stereo not drawn): > 44.9 µg/mL
- CC(=O)c1cccc(NC(=O)C(C)OC(=O)C2CCC2)c1 (stereo not drawn): > 43.4 µg/mL
- COCCNC(=O)Cn1cc(C(=O)c2ccco2)c2ccccc21: > 49 µg/mL

Proceed to the following item.
Exam item: Quick one: solubility kinetic of O=C(Nc1cccc2cccnc12)c1ccc(Br)cc1Br ?
Marked response: < 0.4 µg/mL

----------
This listing pairs compounds with measured solubility kinetic.
conditions: buffer; pH 7.4; 200.0 µM
Supply the numeric figure in µg/mL, leaving out any unit text.

- Cc1nc2ccc(S(=O)(=O)N3CCCCC3)cc2s1: 21.4
- Cc1cc(Cl)nc(Cl)c1C(=O)NC(=O)NCCC(C)C: 34.7
- COc1cc(C2Nc3cccc4cccc(c34)N2)ccc1O: 35.5
- O=c1onc(-c2ccc(Cl)cc2Cl)n1-c1cccnc1: 19.5
- COc1cccc(NC(=S)N(CCN2CCCCC2)Cc2ccco2)c1: 47.3
- COC(=O)[C@H](CCSC)NC(=O)c1cccnc1SC: 38.8

Exam item: So what's the measured solubility kinetic for this one? COc1ccc(CN2CCN(C3CCC3)CC2CCO)c(F)c1 (stereo not given)
Marked response: 42.2

Exam item: Subsequent entry: C=CCn1c(SCc2ccccc2)nc2c1c(=O)[nH]c(=O)n2C
Marked response: 25

Exam item: Also, O=C(NCc1cccc(Cl)c1)c1ccc2c(c1)OCCO2 please.
Marked response: 3.2

Exam item: Here is the next compound: Cc1cc(C(=O)NCC(=O)Nc2ccc(F)c(F)c2)c(C)o1
Marked response: 11.3

Exam item: Now consider Cc1cc(C)c(C)c(S(=O)(=O)NCCN2CCOCC2)c1C .
Marked response: 48.8

Exam item: Also need O=C(COC(=O)COc1cccc(F)c1)Nc1nc2ccccc2s1 , thanks.
Marked response: 45.1

Exam item: What do you have for O=C(NCc1ccccc1)NC(=O)c1ccccc1F ?
Marked response: 21.1

Exam item: Entry to check: N#Cc1cccc(Nc2c3c(nc4ccccc24)CCC3)c1
Marked response: 8.4

Exam item: Can you check O=C(COC(=O)c1cc(=O)c2ccccc2o1)NCC1CCCCC1 next?
Marked response: 33

Exam item: Consider next the compound CCOP(=O)(OCC)C(Nc1cccc([N+](=O)[O-])c1)c1ccccc1 (stereo not given) in the same way.
Marked response: 7.8

Exam item: Same thing, different compound: CCc1ccc(NC(=O)C(=O)NCc2ccccn2)cc1
Marked response: 16.1

Exam item: Queued: Cc1nc2oc3c(=O)[nH]cnc3c2c2c1COC(C)(C)C2
Marked response: 40

Exam item: Please give the result for Cc1cc(C(=O)CN2C(=O)NC(CC(C)C)C2=O)c(C)n1C1CC1 (stereo not given) too.
Marked response: 22.7

Exam item: And then Cc1cccc(/C=C/c2onc(C)c2[N+](=O)[O-])n1 , what is it?
Marked response: 2.8

Exam item: Same question for COc1ccccc1N1CCN(CCCCN2C(=O)C3CCCCN3C2=O)CC1 (stereo not given) please.
Marked response: 52.4
